The reported numbers originate from patent US20230303680A1.

# koff per record follows
Assay System: T1, human interleukin-2 (recombinant human IL-2, teceleukin) (human, UniProt P60568 21-153)
T1 construct: also called hIL-2; rhIL-2
T1 sequence (P60568 21-153 limits assumed): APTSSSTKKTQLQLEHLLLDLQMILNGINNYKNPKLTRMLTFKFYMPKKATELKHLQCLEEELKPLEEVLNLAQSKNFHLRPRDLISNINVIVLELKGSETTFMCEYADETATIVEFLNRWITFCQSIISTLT
Procedure Summary: SPR
Entry rule: numbers only, all in s⁻¹.

UFKA-22-11 (antibody, human IgG1, V domains shown) VH: EVQLVESGGGLVKPGGSLRLSCAASGFSFSNYAMSWVRQAPGKGLEWVSLISGGGSYSYYPDSLKGRFTISRDSAKNSLYLQMNSLRAEDTAMYYCARHMGYNDYLAWFAYWGQGTLVTVSS VL: DIVMTQSPDSLAVSLGERATINCKSSQSLLNSANQKNYLAWYQQKPGQPPKLLIYFASTRESGVPDRFIGSGSGTDFTLTISSLQAEDVAVYYCQQYYSAPPWTFGGGTKVEIK = 0.00275
UFKA-22-08 (antibody, human IgG1, V domains shown) VH: EVQLVESGGGLVKPGGSLRLSCAASGFSFSNYAMSWVRQAPGKGLEWVSLISGGGSYSYYPDSLKGRFTISRDSAKNSLYLQMNSLRAEDTAVYYCARHMGYNDYLAWFAYWGQGTLVTVSS VL: DIVMTQSPDSLAVSLGERATINCKSSQSLLNSANQKNYLAWYQQKPGQPPKLLIYFASTRESGVPDRFIGSGSGTDFTLTISSLQAEDVAVYYCQQYYSAPPWTFGGGTKVEIK = 0.00275
UFKA-22-09 (antibody, human IgG1, V domains shown) VH: EVQLVESGGGLVKPGGSLRLSCAASGFSFSNYAMSWVRQAPGKGLEWVSLISGGGSYSYYPDSLKGRFTISRDNAKNSLYLQMSSLRAEDTAVYYCARHMGYNDYLAWFAYWGQGTLVTVSS VL: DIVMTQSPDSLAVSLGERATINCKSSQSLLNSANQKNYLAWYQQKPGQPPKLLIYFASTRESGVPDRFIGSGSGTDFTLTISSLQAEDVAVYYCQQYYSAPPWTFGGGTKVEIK = 0.00246

-- ask Given UFKA-22-14 (antibody, human IgG1, V domains shown) VH: EVQLVESGGGLVKPGGSLRLSCAASGFSFSNYAMSWVRQAPGKGLEWVSLISGGGSYSYYPDSLKGRFTISRDNAKNSLYLQMNSLRAEDTAVYYCARHMGYNDYLAWFAYWGQGTLVTVSA VL: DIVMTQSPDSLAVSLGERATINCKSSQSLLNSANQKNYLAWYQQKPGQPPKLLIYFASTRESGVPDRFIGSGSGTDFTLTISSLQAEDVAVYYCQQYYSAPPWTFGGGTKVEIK , respond with its koff.
-- reply 0.0024

-- ask Given UFKA-22-07 (antibody, human IgG1, V domains shown) VH: EVQLVESGGGLVKPGGSLRLSCAASGFSFSNYAMSWVRQAPGKGLEWVSLISGGGSYSYYPDSLKGRFTISRDNAKNSLYLQMNSLRAEDTAVYYCARHMGYNDYLAWFAYWGQGTLVTVSS VL: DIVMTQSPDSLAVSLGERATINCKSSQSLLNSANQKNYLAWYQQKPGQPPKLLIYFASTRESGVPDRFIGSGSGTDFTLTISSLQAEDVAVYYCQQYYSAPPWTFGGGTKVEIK , respond with its koff.
-- reply 0.00251
